Quick reference for percent growth inhibition, RWP1 10 μg/ml among some molecules
Test system: RWP1 cells
Measurement description: Effect of anti-FZD5 Fabs on proliferation of pancreatic cancer cell lines (percent growth inhibition)
Type: cell-based, human
Conditions: Fab 10 μg/ml
Your answer should be a plain number; it is taken to be in %.

Molecule: Fab-2925: anti-FZD5 Fab with antibody variable region Fv-2925; CDR SEQ ID NOs: 35, 36, 64, 102, 140, 172 (antibody, V domains shown) VH: EVQLVESGGGLVQPGGSLRLSCAASGFNLSYSSMHWVRQAPGKGLEWVASIYPSYGSTYYADSVKGRFTISADTSKNTAYLQMNSLRAEDTAVYYCARYGYFGLDYWGQGTLVTVSS VL: DIQMTQSPSSLSASVGDRVTITCRASQSVSSAVAWYQQKPGKAPKLLIYSASSLYSGVPSRFSGSRSGTDFTLTISSLQPEDFATYYCQQAWVYASLFTFGQGTKVEIK
Units text: %
percent growth inhibition, RWP1 10 μg/ml: 33.53

Given item Fab-2902: anti-FZD5 Fab with antibody variable region Fv-2902; CDR SEQ ID NOs: 35, 36, 41, 80, 117, 153 (antibody, V domains shown) VH: EVQLVESGGGLVQPGGSLRLSCAASGFNISYYYIHWVRQAPGKGLEWVASISSSSSSTSYADSVKGRFTISADTSKNTAYLQMNSLRAEDTAVYYCARGALDYWGQGTLVTVSS VL: DIQMTQSPSSLSASVGDRVTITCRASQSVSSAVAWYQQKPGKAPKLLIYSASSLYSGVPSRFSGSRSGTDFTLTISSLQPEDFATYYCQQWYAFGALITFGQGTKVEIK , the value recorded as its percent growth inhibition, RWP1 10 μg/ml is 31.22
